Origin of the recorded values: paper PMC3265452

- Experimental Target: AaDOP2 (Aedes aegypti)
- Sequence (H6D5H2 1-476): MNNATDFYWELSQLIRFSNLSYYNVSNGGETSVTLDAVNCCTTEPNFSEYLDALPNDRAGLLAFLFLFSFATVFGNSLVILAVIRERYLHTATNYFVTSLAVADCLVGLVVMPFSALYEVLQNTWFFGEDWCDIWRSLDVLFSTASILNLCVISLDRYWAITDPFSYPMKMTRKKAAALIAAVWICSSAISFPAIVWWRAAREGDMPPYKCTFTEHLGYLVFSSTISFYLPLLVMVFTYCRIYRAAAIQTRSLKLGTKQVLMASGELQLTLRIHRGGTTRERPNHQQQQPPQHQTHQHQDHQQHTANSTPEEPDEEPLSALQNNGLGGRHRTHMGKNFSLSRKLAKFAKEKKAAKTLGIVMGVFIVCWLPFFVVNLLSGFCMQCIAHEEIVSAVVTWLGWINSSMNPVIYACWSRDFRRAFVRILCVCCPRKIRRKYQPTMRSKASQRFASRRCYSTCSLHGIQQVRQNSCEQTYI
- Assay Procedure: AaDOP2 antagonist screen of the LOPAC1280 library (HEK-CRELuc-Aadop2 cells, luminescence)
- Assay type: cell-based
- Assay Context: read-out: % of the SCH23390 effect (percent inhibition of receptor response relative to the SCH23390 control)
Counter-ions that a name gives are not always drawn.
The threshold is inclusive: inhibition at 10 µM of exactly 90% counts as 1.0; values below receive 0.0.

                                   compound  assigned_class
0  CNCCCC1c2ccccc2C=Cc2ccccc21 [Compound 986, Protriptyline hydrochloride]             0.0
1  CCC(=O)c1ccc2c(c1)N(CCCN(C)C)c1ccccc1S2 [Compound 972, Propionylpromazine hydrochloride]             0.0
2  CC(C)[C@H](CO)Nc1nc(Nc2cccc(Cl)c2)c2ncn(C(C)C)c2n1             1.0
3         CC1(C)CCC2=C(O1)c1ccccc1C(=O)C2=O             0.0
4  CC(CN(C)C)CN1c2ccccc2CCc2ccccc21 (stereo not shown) [Compound 1164, Trimipramine maleate]             0.0

Identify whether the reported inhibition at 10 µM of the following compound is 90% or greater: O=C(Nc1ccc([N+](=O)[O-])cc1Cl)c1cc(Cl)ccc1O [Compound 847, Niclosamide, reference compound]
1.0

Assess whether reported inhibition at 10 µM for CN1CCc2cc(Cl)c(O)cc2[C@@H](c2ccccc2)C1 [Compound 446, R(+)-SCH-23390 hydrochloride] sits at 90% or higher.
0.0

Hi, just wondering whether Cc1nc2sccn2c(=O)c1CCN1CCC(=C(c2ccc(F)cc2)c2ccc(F)cc2)CC1 shows inhibition at 10 µM of 90% or higher.
0.0

Would you say CCNC(=O)N1CCN(CCCC(c2ccc(F)cc2)c2ccc(F)cc2)CC1 [Compound 76, Amperozide hydrochloride] shows inhibition at 10 µM at minimum 90%?
0.0

I'd appreciate it if you could say whether CSc1ccc2c(c1)C(N1CCN(C)CC1)Cc1ccccc1S2 (stereo not shown) [Compound 825, Methiothepin mesylate] has inhibition at 10 µM at least equal to 90%.
1.0

Assess whether reported inhibition at 10 µM for CN1CCN(C2=Nc3ccccc3Oc3ccc(Cl)cc32)CC1 [Compound 720, Loxapine succinate] sits at 90% or higher.
1.0
